# test: Half-life in blood (in vivo) by HPLC
# test conditions: read-out: time to degradation to half in blood (in vivo) (converted)
Bridge positions count the residues as written; N and C are the ends. Peptide text beside a SMILES is read from it.
measure: half-life (h)

compound="N=C(N)NCCC[C@@H]1NC(=O)[C@@H](NC(=O)[C@@H]2CCCN2C(=O)[C@H](CCCNC(=N)N)NC(=O)[C@H](CCC(N)=O)NC(=O)[C@@H]2CCCN2C(=O)[C@H](Cc2ccc(O)cc2)NC(=O)[C@@H](N)CC(N)=O)CSSC[C@@H](C(N)=O)NC(=O)[C@H](CC(=O)O)NC(=O)[C@@H]2CCCN2C(=O)CNC(=O)[C@H](CCCCN)NC(=O)[C@H](CC(=O)O)NC(=O)CNC1=O [ACP52C] (H-NYPQRPCRGDKGPDC-NH2; disulfide 7-15; N-terminus assumed)" endpoint_unit=h result=2
